Target: T1, human CD200R1 expressed on cells (Jurkat-CD200R1, U937-CD200R1, HH cells) (human, UniProt Q8TD46 25-348)
T1 construct: whole, on cells; also called HH (CRL-2105); cell surface-expressed CD200R1
T1 sequence (looked up): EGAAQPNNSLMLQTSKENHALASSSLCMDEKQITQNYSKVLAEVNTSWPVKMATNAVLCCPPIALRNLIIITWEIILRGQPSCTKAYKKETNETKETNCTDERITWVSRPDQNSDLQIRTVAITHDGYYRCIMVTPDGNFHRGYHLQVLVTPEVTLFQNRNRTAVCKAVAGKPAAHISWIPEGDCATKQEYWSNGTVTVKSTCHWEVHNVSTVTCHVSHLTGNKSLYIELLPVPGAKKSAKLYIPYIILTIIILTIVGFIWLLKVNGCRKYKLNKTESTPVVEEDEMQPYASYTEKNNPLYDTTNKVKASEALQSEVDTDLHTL
Assay: flow cytometry, HH cells; drawn table, row EC50
# EC50 per entry

- BINDER: "P001018 scFv mutant L3-R92S (scFv) scFv: QVQLVQSGAEVKKPGASVKVSCKASGYTFTSYVMHWVRQAPGQGLEWMGYINPYNDDTNYNEKFKGRVTMTRDTSTSTVYMELSSLRSEDTAVYYCAREDYYGSRWGYWGQGTLVTVSSGGGGSGGGGSGGGGSDIVLTQSPASLAVSPGQRATITCRASKSVSTSGYSYMHWYQQKPGQPPKLLIYLASNLESGVPARFSGSGSGTDFTLTINPVEANDTANYYCQHSSELLTFGQGTKVEIK"
  EC50 [nM]: 7.76
- BINDER: "P001018 scFv mutant L3-L94S (scFv) scFv: QVQLVQSGAEVKKPGASVKVSCKASGYTFTSYVMHWVRQAPGQGLEWMGYINPYNDDTNYNEKFKGRVTMTRDTSTSTVYMELSSLRSEDTAVYYCAREDYYGSRWGYWGQGTLVTVSSGGGGSGGGGSGGGGSDIVLTQSPASLAVSPGQRATITCRASKSVSTSGYSYMHWYQQKPGQPPKLLIYLASNLESGVPARFSGSGSGTDFTLTINPVEANDTANYYCQHSRESLTFGQGTKVEIK"
  EC50 [nM]: 9.52
- BINDER: "P001018 scFv mutant L3-R92H (scFv) scFv: QVQLVQSGAEVKKPGASVKVSCKASGYTFTSYVMHWVRQAPGQGLEWMGYINPYNDDTNYNEKFKGRVTMTRDTSTSTVYMELSSLRSEDTAVYYCAREDYYGSRWGYWGQGTLVTVSSGGGGSGGGGSGGGGSDIVLTQSPASLAVSPGQRATITCRASKSVSTSGYSYMHWYQQKPGQPPKLLIYLASNLESGVPARFSGSGSGTDFTLTINPVEANDTANYYCQHSHELLTFGQGTKVEIK"
  EC50 [nM]: 6.14

Source of measurements: patent US20260263521A1
